- test.target: erythrocytes infected with P. falciparum field isolate 10936
- assay.summary: flow cytometry, staining of IEs
measure: % parasite recognition (%)
Give the value, in units of %, as a plain number.

So what does the record say about % parasite recognition for MGC26 (antibody) VH: EVQLVDSGGGLVQPGGSLRLSCAASGFTFSTYWMTWVRQTPGKGLEWVASIKQDGTERYYVDSVKGRFIISRDNAKNSLYLQMHSLRAEDTAVYYCVRDRFCRDHMHIEEDLPRPSISPEPATVIPLGSHVTIVCRGPVGVETFRLQKESRSLYNDTEDVSQPSPSESEARFRIDSVSEGHGGLYRCLYYKSSKWSEQSDYLEMLVKGEDVTWALFPYCGGDGEESDYYMDVWGKGTTVTVSS VL: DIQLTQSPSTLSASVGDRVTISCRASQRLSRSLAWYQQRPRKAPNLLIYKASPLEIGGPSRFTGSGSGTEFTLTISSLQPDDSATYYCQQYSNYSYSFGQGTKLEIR ?
3.6

So what does the record say about % parasite recognition for MGC2 (antibody) VH: EVQLVESGGGLVQPGGSLRLSCAASGFTFSNFWMGWVRQTPGKGLEWVANIKEDGSEKYYVDSVRGRFTISRDSAKNSLYLQMNSLRAEDTAVYYCVRERFCSNHIHKEEHLPRPSISPEPGTVITLGSHVTFVCRGPVGVQTFRLEKDSRSTYNDTEDVSQPSPSESEARFRIDSVSEGYAGLYRCLYYKPPKWSEQSDYLELLVKGDDVTWALYPSCGGDGEASDYNMDVWGKGTTVTVSS VL: DIQMTQSPSTLSASVGDRVTISCRASQRFSGWLAWYQQKPGKAPNLLIYKASPLAGGGPSRFSGSGSGTDFTLTISSLQPDDSATYYCQHYSNYSYTFGQGTKLEIR ?
2.8

So what does the record say about % parasite recognition for MGC7 (antibody) VH: EVQLVESGGDLVQPGGSLRLSCAASGFTFRNYWMSWVRQTPGKGLEWVANIRQDGSEKYYVDSVKGRFTISRDNAKNLLYLQMNSLRAEDTAVYYCVRDKFCSDENHMHVADDLPRPSISPEPGTVIPLGSHVTFVCRGPVGVQTFRLEKDRRSTYNDTEDVSQPSPSESEARFRIDSVTEGNAGLYRCVYYKPPKWSDQSDFLELLVKGEDVTWALFPHCGADGEDSDYYMDVWGKGTTVTVSS VL: DIQMTQSPSSVSASVGDRVTITCRASQGLSTWLAWYQQKPGKAPKILIYAASSLQSGVPSRFSGSGSGTDFTLTISSLQPEDFATYYCQQANSFPLTFGGGTKVEIK ?
1.7

So what does the record say about % parasite recognition for MGC17 (antibody) VH: EVQLVESGGGLVQPGGSLKLSCVASGFNFRKSWMSWVRQAPGKGLEWVANIREDGSKAYYVDSVKGRFTVSRDNAKNSLYLQINSLRADDTAVYYCARDRFCSDDEDHSHGAEDLPRPSISAEEGTVIPLGSRLTFVCRGPVGVHTFRLERDRRSTYNDTEDVSHPSPSESEARFRIDSVSEGNAGLYRCVYYKSPEWSKQSDYLELLVKGQEVTWALFTSCGGDGEVPDYDMDVRGKGTTVTVSS VL: DIVMTQSPDSLAVSLGERATINCKSSQSVLYRSKNKKYLAWFQQRPGQPPKVLIYWTSTRASGVPDRFSGSGSGTDFTLTISSLQADDVAVYYCQQYFIFPYTFGQGTKLEIR ?
2.4

So what does the record say about % parasite recognition for MGD23 (antibody) VH: QVQLQESGPGLVKPSGTLSLTCSVSGGSISSNKWWSWVRQSPGKGLEWIGEVYQTGITNYNPSLKGRVTMSVDKSKNQFSLRLTSVTAADTAVYYCATISQLRPQGDTEDLPRPSLSAEPGTVIPLGSHVTFVCRGPAGVETFRLERESRFTYNDTEDVSQASPSESEARFRIDSVSEGNAGPYRCLYYKARKWSDQSDYLELLVKGADVTWALPQSQLAPRACPQGELRISTDVFSMNVWGNGTTVTVSS VL: AVRVTQSPTSLSASTGDRVTITCRTSQYVGNYLDWYQQKPGKAPKLLIHGVSTLQNGVPSRFSGSASGTDFTLNITCLQSEDSATYYCQQYYTSPPDFGQGTRLEIK ?
4.3

So what does the record say about % parasite recognition for MGC35 (antibody) VH: EVQLVESGGGLVQPGGSLRLSCEASGFNSRSYWMTWVRQAPGKGLEWVASINQDATEKNYVDSVKGRFTISRDTAKNSLYLQMNSLRAEDTAVYYCARDRFCGGESHLHGQEDLPRPSISAEPGSVIPLGSLVTFVCRGPVGVHTFRLERGWTYNDTEDVSQAGPSESEARFRMDSVREGNAGLYRCIYYKPPKWSEQSAYLELRVKGGDVTWALLTYCGGDGEESDYPMDVWGKGTTVTVSS VL: QTVVTQEPSLTVSPGGTVTLTCASSTGPVTSAYYPNWFQQKPGQAPRSLIYNINKKHSWTPDRFSGSLLGGKAALTLSGVQPEDEADYYCLLSCGGAQPWVFGGGTKLTVQ ?
2.5

So what does the record say about % parasite recognition for MGD34 (antibody) VH: EVQLVESGPGLMKTSGTLSLTCAVSGDYVNTNRRWSWVRQAPGKGLEWIGEVHQSGRTNYNPSLKSRVTISVDKSKNQFSLKVDSVTAADTAVYYCARASPLKSQRDTEDLPRPSISAEPGTVIPLGSHVTFVCRGPVGVQTFRLERERNYLYSDTEDVSQTSPSESEARFRIDSVNAGNAGLFRCIYYKSRKWSEQSDYLELVVKGEDVTWALSQSQVDPRACPQGELPISTDIYYVDVWGNGTTFTVSS VL: AIRMTQSPSSLSASPGDKVSITCRASQHINDSLAWFQQRPGKAPKLLIYGASNLHSGVPSRFSGTGSGTDFTLTITGLQSEDFATYFCQQCNCFPPDFGQGTRLEIK ?
8.1
